Hey, just so you know, these numbers are from patent US20080027095A1.

Exercise: for every item that follows, state its recorded IC50.
- tested_system: hMRG-X1 receptor (Homo sapiens)
- Sequence (Q96LB2 whole entry): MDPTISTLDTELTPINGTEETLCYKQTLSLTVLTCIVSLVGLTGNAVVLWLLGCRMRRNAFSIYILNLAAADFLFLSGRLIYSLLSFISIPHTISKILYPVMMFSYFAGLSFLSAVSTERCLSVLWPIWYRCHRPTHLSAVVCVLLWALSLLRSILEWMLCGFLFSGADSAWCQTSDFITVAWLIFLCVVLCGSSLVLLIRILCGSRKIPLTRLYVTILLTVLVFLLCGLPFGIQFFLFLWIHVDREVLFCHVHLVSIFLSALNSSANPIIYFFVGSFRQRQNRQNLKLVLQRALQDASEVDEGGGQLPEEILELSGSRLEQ
- protocol_text: Receptor trafficking/internalization assay (InCell, Transfluor) in U2OS-hMRGX1-βarrGFP cells
- Assay type: cell-based
- particulars: 60 μM BAM15 (EC80), receptor trafficking; read-out: IC50 InCell
One number for each entry, in µM.

>  <compound>
COc1ccccc1C(O)C=C1C2CCN(CC2)C1C(c1ccccc1)c1ccccc1 (centres unmarked) [Compound 3]

>  <tested_system>
hMRG-X1 receptor (Homo sapiens)

>  <u>
µM

>  <IC50>
0.55

$$$$
>  <compound>
OC(C=C1C2CCN(CC2)C1C(c1ccccc1)c1ccccc1)c1cccc(C(F)(F)F)c1 (centres unmarked) [Compound 4]

>  <tested_system>
hMRG-X1 receptor (Homo sapiens)

>  <u>
µM

>  <IC50>
6.78

$$$$
>  <compound>
COc1ccccc1NC(=S)NC1C2CCN(CC2)C1C(c1ccccc1)c1ccccc1 (centres unmarked) [Compound 15]

>  <tested_system>
hMRG-X1 receptor (Homo sapiens)

>  <u>
µM

>  <IC50>
13.5

$$$$
>  <compound>
FC(F)(F)c1ccccc1CNC1C2CCN(CC2)C1C(c1ccccc1)c1ccccc1 (centres unmarked) [Compound 11]

>  <tested_system>
hMRG-X1 receptor (Homo sapiens)

>  <u>
µM

>  <IC50>
5.2

$$$$
>  <compound>
C(Cc1ccccc1)=C1C2CCN(CC2)C1C(c1ccccc1)c1ccccc1 (centres unmarked) [Compound 7]

>  <tested_system>
hMRG-X1 receptor (Homo sapiens)

>  <u>
µM

>  <IC50>
2.2

$$$$
>  <compound>
OC(C=C1C2CCN(CC2)C1C(c1ccccc1)c1ccccc1)c1ccc(F)cc1 (centres unmarked) [Compound 8]

>  <tested_system>
hMRG-X1 receptor (Homo sapiens)

>  <u>
µM

>  <IC50>
4.8

$$$$
>  <compound>
Cc1cc(C)cc(C(O)C=C2C3CCN(CC3)C2C(c2ccccc2)c2ccccc2)c1 (centres unmarked) [Compound 9]

>  <tested_system>
hMRG-X1 receptor (Homo sapiens)

>  <u>
µM

>  <IC50>
5.2

$$$$

# evaluate next
Provide measured IC50 value, entry: N#Cc1cccc(COC2C3CCN(CC3)C2C(c2ccccc2)c2ccccc2)c1 (centres unmarked) [Compound 10] 10
